Experimental Target: T1, recombinant human TROP2 extracellular domain (aa 1-274) comprising His tag (human, UniProt P09758 27-274)
T1 construct: Used here for all assays on recombinant human TROP2 (ELISA, immunoblot, SPR, crystal), although only some of them name the catalogue number; also called human recombinant TROP2; recombinant human TROP2 protein; not shown: His tag
T1 sequence: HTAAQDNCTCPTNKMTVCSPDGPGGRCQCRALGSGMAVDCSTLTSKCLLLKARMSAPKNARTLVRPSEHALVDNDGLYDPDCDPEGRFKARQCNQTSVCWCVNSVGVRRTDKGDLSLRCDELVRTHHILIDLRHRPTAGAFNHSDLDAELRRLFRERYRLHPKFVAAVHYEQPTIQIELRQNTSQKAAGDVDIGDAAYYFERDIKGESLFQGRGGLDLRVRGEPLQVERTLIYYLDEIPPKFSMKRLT
Protocol Description: SPR
Quantity: pKd
Expect pKd as a plain number equal to -log10 of the molar concentration.

Entry under test: KD001 (antibody, human IgG1, V domains shown, also called anti-TROP2 sdAb KD001) VH: QVQLQESGGGMVHPGGSLRLSCAASGFTFSGSDMSWVRQAPGKGPEWVSYITSGGTTYYPDSVKGRFTISRDNAKNTLYLQMNSLTPDDTALYRCAKARLTDSHYVEDAWGQGTQVTVSS . Its pKd was 10.08

Lab note: measured pKd of KD003 (antibody, human IgG1, V domains shown, also called anti-TROP2 sdAb KD003) VH: QVQLQESGGGMVQPGGSLRLSCAASGFTFSNYDMSWVRQAPGKGPEWVSYINAGGSNTDYPDSVKGRFTISRDNAKNMLYLLMNNLKPEDTALYRCARAKLTDTHYVEDYWGQGTQVTVSS was 10.34

KD002 (antibody, human IgG1, V domains shown, also called anti-TROP2 sdAb KD002) VH: QVQLQESGGGMVQVGGSLRLSCAASGFPFSSADMSWVRQAPGKGPEWVSYINADGSKTYYPDSVKGRFTISRDNAKNTLYLLMNNLKPEDTALYRCARAKLTDTHYVEDYWGQGTQVTVSS yielded pKd of 10.36

The binder KD005 (antibody, human IgG1, V domains shown, also called anti-TROP2 sdAb KD005) VH: QVQLQESGGGLVEAGGSLRLSCAASGFTFSGSDMSWVRQAPGKGPEWVSYITSGGTTYYPDSVKGRFTISRDNAKNTLYLQMNSLKPDDTALYRCAKSRLTDSHYVEDAWGQGTQVTVSS showed pKd equal to 10.57

# binder KD004 (antibody, human IgG1, V domains shown, also called anti-TROP2 sdAb KD004) VH: QVQLQESGGGLVQPGRSLRLSCAASGFTFSGSDMSWVRQAPGKGPEWVSYITGSGTTYYPDSVKGRFTTSRDNAKNMLYLQMNSLKPDDTALYRCAKARLTDSHYVEDAWGQGTQVTVSS ; its pKd = 10.53
